# Study target: KRAS (WT)::SOS1 (Homo sapiens, UniProt P01116, C118S)
# Construct: KRAS (WT) 1-169, N-terminal 6His-tag for purification, cleaved off; 6His-tag (N, cleaved yes); TEV cleavage site
# Sequence (P01116 1-169 isoform P01116-2 C118S): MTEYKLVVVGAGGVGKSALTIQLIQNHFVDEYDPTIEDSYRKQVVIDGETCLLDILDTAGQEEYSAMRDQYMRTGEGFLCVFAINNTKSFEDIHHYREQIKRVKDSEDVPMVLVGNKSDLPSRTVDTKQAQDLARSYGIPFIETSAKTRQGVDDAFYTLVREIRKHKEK
# Method: KRAS::SOS1 AlphaScreen binding assay, KRAS WT
# Protocol: Low IC50 values in this assay setting are indicative of strong inhibition of protein-protein interaction between SOS1 and KRAS: […] Plates are kept at room temperature in a darkened incubator. After an additional 60 minutes incubation time the signal is measured in a PerkinElmer Envision HTS Multilabel Reader using the AlphaScreen specs from PerkinElmer. IC50 values are calculated and analyzed with Boehringer Ingelheim's MEGALAB IC50 application using a 4 parametric logistic model.
Readout kind: pIC50
Numbers only, as −log10 of the molar value.

C[C@@H](O)CN1CCCN(c2nccc(-c3onc4c3CCC[C@@]43CCCc4sc(N)c(C#N)c43)n2)[C@@H](C)C1 : 7.68
C[C@H]1CN(C2CCOCC2)CCCN1c1nccc(-c2noc3c2CCC[C@@]32CCCc3sc(N)c(C#N)c32)n1 (single isomer, unassigned) : 7.60
C[C@H]1[C@@H]2CCCN2CCCN1c1nccc(-c2onc3c2CCC[C@@]32CCCc3sc(N)c(C#N)c32)n1 : 8.05
C[C@H](Oc1ccnc(-c2noc3c2CCC[C@@]32CCCc3sc(N)c(C#N)c32)n1)[C@@H]1CCCN1C : 8.15
C[C@H]1CNCCCN1c1nccc(-c2noc3c2CCC[C@@]32CCCc3sc(N)c(C#N)c32)n1 (single isomer, unassigned) : 7.92

Now examine the next entry.
Entry C[C@H]1CNCCCN1c1nccc(-c2onc3c2CCC[C@@]32CCCc3sc(N)c(C#N)c32)n1 under KRAS (WT)::SOS1 (Homo sapiens, UniProt P01116, C118S) had pIC50 of 7.37

====

# Study target: KRAS (G12D)::SOS1 (Homo sapiens, UniProt P01116, G12D)
# Construct: KRAS (G12D) 1-169, N-terminal 6His-tag, C-terminal avi-tag; 6His-tag (N); Viva Biotech Ltd (SOS1)
# Sequence (P01116 1-169 isoform P01116-2 G12D): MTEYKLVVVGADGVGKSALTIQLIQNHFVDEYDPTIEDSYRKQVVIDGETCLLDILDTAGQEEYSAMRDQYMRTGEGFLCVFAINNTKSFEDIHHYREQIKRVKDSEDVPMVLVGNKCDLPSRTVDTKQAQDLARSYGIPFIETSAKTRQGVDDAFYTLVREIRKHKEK
# Method: KRAS::SOS1 AlphaScreen binding assay, KRAS G12D
Record form. Attribute: pIC50. Fill in for each entry.
One number for each entry, as −log10 of the molar value.

C[C@H]1CNCCCN1c1ncnc(-c2onc3c2CCC[C@@]32CCCc3sc(N)c(C#N)c32)n1 : 8.40
CO[C@@H]1C[C@@H]([C@H](C)Oc2nccc(-c3onc4c3CCC[C@@]43CCCc4sc(N)c(C#N)c43)n2)N(C)C1 : 8.70
CC(Oc1nccc(-c2onc3c2CCC[C@@]32CCCc3sc(N)c(C#N)c32)n1)C12CCCN1CCC2 (stereo partly drawn) : 8.40
C[C@H]1[C@@H]2CCCN2CCCN1c1nccc(-c2onc3c2CCC[C@@]32CCCc3sc(N)c(C#N)c32)n1 : 9.00

Dear reader, for each entry below, please note its pIC50.
1. C[C@H](Oc1nccc(-c2onc3c2CCC[C@@]32CCCc3sc(N)c(C#N)c32)n1)[C@@H]1C[C@@H]2C[C@@H]2N1
2. C[C@H]1CNCCCN1c1nccc(-c2nn(C)c3c2CCC32CCCc3sc(N)c(C#N)c32)n1 (stereo partly drawn)
3. C[C@H](Oc1nccc(-c2onc3c2CCC[C@@]32CCCc3sc(N)c(C#N)c32)n1)[C@@H]1C[C@@H]2C[C@@H]2N1C

1: 8.22; 2: 5.75; 3: 8.40

====

# Study target: KRAS G12C Ba/F3 cells (Homo sapiens, UniProt P01116, G12C, cells depend on it)
# Sequence (P01116 whole entry G12C): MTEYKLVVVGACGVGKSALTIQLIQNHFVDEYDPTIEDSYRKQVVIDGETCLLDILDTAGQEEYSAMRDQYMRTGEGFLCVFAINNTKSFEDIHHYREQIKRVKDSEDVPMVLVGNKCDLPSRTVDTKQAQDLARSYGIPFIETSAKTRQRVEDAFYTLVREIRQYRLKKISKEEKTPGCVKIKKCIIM
# Method: Ba/F3 proliferation assay, KRAS G12C
# Assay type: cell-based
# Condition set: 72 h, AlamarBlue; read-out: KRAS G12C Ba/F3 IC50
Readout kind: GI50 (nM)
Answers are plain numbers, in nM.

Dear reader, for each entry below, please note its GI50.
1. CCN1[C@H]2C[C@H]2C[C@H]1[C@H](C)Oc1nccc(-c2onc3c2CCC[C@@]32CCCc3sc(N)c(C#N)c32)n1
2. C[C@H](Oc1nccc(-c2onc3c2CCC[C@@]32CCCc3sc(N)c(C#N)c32)n1)[C@@H]1CCCN1C
3. C[C@H]1CNCCCN1c1nccc(-c2noc3c2OCCC32CCCc3sc(N)c(C#N)c32)n1 (stereo partly shown)
4. C[C@H](Oc1nccc(-c2onc3c2CCC[C@@]32CCCc3sc(N)c(C#N)c32)n1)[C@@H]1C[C@@H]2C[C@@H]2N1

49
51
131
8510

====

# Method: Caco-2 assay
# Type: in vitro ADME
# Condition set: human, Caco-2, apical to basolateral, pH 7.4, read-out: Caco PappAB
Record form. Attribute: Papp A→B at 90 min, 10 μM. Fill in for each entry.

Previously resolved entries follow.
C[C@H](Oc1ccnc(-c2noc3c2CCC[C@@]32CCCc3sc(N)c(C#N)c32)n1)[C@@H]1CCCN1C : 17 ×10⁻⁶ cm/s
C[C@H]1CNCCN1c1nccc(-c2noc3c2CCC[C@@]32CCCc3sc(N)c(C#N)c32)n1 : 12 ×10⁻⁶ cm/s
C[C@H]1CNCCCN1c1nccc(-c2onc3c2CCC[C@@]32CCCc3sc(N)c(C#N)c32)n1 : 9.4 ×10⁻⁶ cm/s

Now examine the next entry.
For reference, reported Papp A→B at 90 min, 10 μM for C[C@H](Oc1nccc(-c2onc3c2CCC[C@@]32CCCc3sc(N)c(C#N)c32)n1)[C@@H]1CCCN1C stands at 26 ×10⁻⁶ cm/s

====

# Study target: CYP3A4 (Homo sapiens, UniProt P08684)
# Construct: assayed in human liver microsomes (0.02 mg/mL) with midazolam (15 μM) as a substrate; from tissue; host or cells: human liver microsomes
# Method: Mechanism based inhibition of CYP3A4 assay (MBI 3A4)
# Assay type: in vitro ADME
# Condition set: 25 uM, hydroxy-midazolam formation after 30 min preincubation relative to 0 min, human liver microsomes
Readout kind: MBI 3A4 (%)
Give bare numbers, in %.

Previously resolved entries follow.
C[C@H]1CNCCCN1c1nccc(-c2onc3c2CCC[C@@]32CCCc3sc(N)c(C#N)c32)n1 [If-1] : 60
C[C@H](Oc1nccc(-c2noc3c2CCC[C@@]32CCCc3sc(N)c(C#N)c32)n1)[C@@H]1CCCN1C [IIb-6] : 52
C[C@H]1CNCCCN1c1nccc(-c2noc3c2CCC[C@@]32CCCc3sc(N)c(C#N)c32)n1 (single isomer, unassigned) [IIb-5] : 65
C[C@H](Oc1nccc(-c2onc3c2CCC[C@@]32CCCc3sc(N)c(C#N)c32)n1)[C@@H]1CCCN1C [Ib-1] : 54

For reference, reported MBI 3A4 for C[C@H](Oc1ccnc(-c2noc3c2CCC[C@@]32CCCc3sc(N)c(C#N)c32)n1)[C@@H]1CCCN1C [IIb-3] stands at 69

====

# Study target: KRAS G12V Ba/F3 cells (Homo sapiens, UniProt P01116, G12V, cells depend on it)
# Sequence (P01116 whole entry G12V): as the sequence (P01116 whole entry G12C) above, with C12V counted along it
# Method: Ba/F3 proliferation assay, KRAS G12V
# Assay type: cell-based
# Condition set: 72 h, AlamarBlue; read-out: KRAS G12V Ba/F3 IC50
Readout kind: GI50

Previously resolved entries follow.
C[C@H]1CNCCCN1c1nccc(-c2noc3c2CSCC32CCCc3sc(N)c(C#N)c32)n1 (stereo partly shown) [IIb-4] : 138 nM
C[C@H]1CNCCCN1c1nccc(-c2noc3c2CC(F)(F)CC32CCCc3sc(N)c(C#N)c32)n1 (stereo partly shown) [IIb-2] : 478 nM
C[C@H]1CNCCCN1c1nccc(-c2nn(C)c3c2CCC32CCCc3sc(N)c(C#N)c32)n1 (stereo partly shown) [IIIb-1] : 10400 nM
CO[C@@H]1C[C@@H]([C@H](C)Oc2nccc(-c3onc4c3CCC[C@@]43CCCc4sc(N)c(C#N)c43)n2)N(C)C1 [Ie-1] : 29 nM
CC(Oc1nccc(-c2onc3c2CCC[C@@]32CCCc3sc(N)c(C#N)c32)n1)C12CCCN1CCC2 (stereo partly shown) [Ie-5] : 92 nM

Dear reader, for each entry below, please note its GI50.
1. C[C@H](Oc1ccnc(-c2noc3c2CCC[C@@]32CCCc3sc(N)c(C#N)c32)n1)[C@@H]1CCCN1C [IIb-3]
2. CCN1[C@H]2C[C@H]2C[C@H]1[C@H](C)Oc1nccc(-c2onc3c2CCC[C@@]32CCCc3sc(N)c(C#N)c32)n1 [Ie-3]

1. 25 nM
2. 84 nM

====

# Method: Solubility measurement (DMSO solution precipitation method)
# Format: physicochemical
# Condition set: aqueous buffer, kinetic from dmso stock; McIlvaine buffer pH 4.5, 24 h, ambient temperature; read-out: solubility pH 4.5
Record form. Attribute: solubility at 24 h. Fill in for each entry.

Previously resolved entries follow.
C[C@H]1CNCCCN1c1nccc(-c2noc3c2CCC[C@@]32CCCc3sc(N)c(C#N)c32)n1 (single isomer, unassigned) [IIb-5] : 92 µg/mL
C[C@H](Oc1nccc(-c2noc3c2CCC[C@@]32CCCc3sc(N)c(C#N)c32)n1)[C@@]1(C)CCCN1C [IIe-1] : > 115 µg/mL
C[C@H](Oc1nccc(-c2noc3c2CCC[C@@]32CCCc3sc(N)c(C#N)c32)n1)[C@@H]1CCCN1C [IIb-6] : > 110 µg/mL
C[C@H](Oc1nccc(-c2onc3c2CCC[C@@]32CCCc3sc(N)c(C#N)c32)n1)[C@@H]1C[C@@H](F)CN1C [Ie-2] : > 125 µg/mL
C[C@H]1CN(CC2CC2)CCCN1c1nccc(-c2onc3c2CCC[C@@]32CCCc3sc(N)c(C#N)c32)n1 [Ig-1] : 23 µg/mL

Dear reader, for each entry below, please note its solubility at 24 h.
1. C[C@H]1CNCCCN1c1nccc(-c2noc3c2OCCC32CCCc3sc(N)c(C#N)c32)n1 (stereo partly shown) [IIb-7]
2. C[C@H](Oc1nccc(-c2onc3c2CCC[C@@]32CCCc3sc(N)c(C#N)c32)n1)[C@@H]1C[C@@H]2C[C@@H]2N1C [Ih-1]

> 103 µg/mL
> 110 µg/mL
